MEASUREMENT_NOTES: soluble on expression in E. coli; label from the status in PepcDB or PDB records
ENDPOINT_LABEL: soluble on expression in E. coli

Some solved cases for reference:
>  <SEQUENCE_TEXT>
AMRQCAIYGKGGIGKSTTTQNLVAALAEMGKKVMIVGCDPKADSTRLILHSKAQNTIMEMAAEAGTVEDLELEDVLKAGYGGVKCVESGGPEPGVGCAGRGVITAINFLEEEGAYEDDLDFVFYDVLGDVVCGGFAMPIRENKAQEIYIVCSGEMMAMYAANNISKGIVKYANSGSVRLGGLICNSRNTDREDELIIALANKLGTQMIHFVPRDNVVQRAEIRRMTVIEYDPKAKQADEYRALARKVVDNKLLVIPNPITMDELEELLMEFGIMEVEDESIVGKTAEEV

>  <soluble on expression in E. coli>
soluble

$$$$
>  <SEQUENCE_TEXT>
MTEDERFAWLQLAFTPYIGAESFLLLMRRFGSAQNALSAPAEQVAALIRHKQALEAWRNAEKRALARQAAEAALEWEMRDGCRLMLLQDEDFPEMLTQGLTAPPVLFLRGNVQLLHKPSAAIVGSRHATPQAMRIAKDFGKSLGGKGIPVVSGMASGIDTAAHQGALQAEGGTIAVWGTGIDRIYPPVNKNLAYEIAEKGLIVSEFPIGTRPYAGNFPRRNRLIAALSQVTLVVEAALESGSLITARLAAEMGREVMAVPGSIDNPHSKGCHKLIKDGAKLVECLDDILNECPGLLQNTGASSYSINKGIPEKRITAVQTASDQLSLPEGKMPSEKTENRPVGGSILDRMGFDPVHPDVLAGQLAMPAADLYAALLELELDGSVAAMPGGRYQRIRT

>  <soluble on expression in E. coli>
not soluble

$$$$
>  <SEQUENCE_TEXT>
MGHHHHHHSHMCSWASYMTNSPTLIVMIGLPARGKTYVSKKLTRYLNWIGVPTKVFNLGVYRREAVKSYKSYDFFRHDNEEAMKIRKQCALVALEDVKAYLTEENGQIAVFDATNTTRERRDMILNFAEQNSFKVFFVESVCDDPDVIAANILEVKVSSPDYPERNRENVMEDFLKRIECYKVTYRPLDPDNYDKDLSFIKVINVGQRFLVNRVQDYIQSKIVYYLMNIHVQPRTIYLCRHGESEFN

>  <soluble on expression in E. coli>
soluble

$$$$
>  <SEQUENCE_TEXT>
MSLEKLLPDPDPTFERPYTLCLSLDDLLIHSEWTREHGWRIAKRPGVDYFIRYLSQYYELVLFTTTPYATGEPVMRKLDPFRLILWPLYREATKFEDGEIVKDLSYLNRDLSKVIIIDTKAKHVRNQPDNAIILDPWKGDKDDKNLVNLIPFLEYIHTMQYSDVRKVIKSFDGKDIPTEGHHHHHH

>  <soluble on expression in E. coli>
soluble

$$$$
>  <SEQUENCE_TEXT>
MAHHHHHHMFSSHKTPAKAQRDGYDDEQHLVAAVSEFKKVEASNQSMVDQLHQRLASPFQITAKPCEAGRAAVLQCYQQLQSSSAVTTSNAASSTSPAPPPGARSDSKSAKVAPAEAWLSIPYQQCYETALAYHQCVEDTLAKHLALVAAFEQCGTQQKIAHQSAMKAQDKPQ

>  <soluble on expression in E. coli>
soluble

$$$$
>  <SEQUENCE_TEXT>
MGIPKEGEFVTIQSYKHDGHLHRTWRDTMVLKTSEYSLIGVNDHTLVTESDGRRWVTREPAIVYFHKKYWFNIIAMIREKGVSYYCNLASPYVLDDEALKYIDYDLDIKVFPDGEKRLLDVDEYEFHSKLMDYPEDIDFILKENVKTLVDWINNEKGPFSPEYVDIWYQRYQQLSKK

>  <soluble on expression in E. coli>
not soluble

$$$$
>  <SEQUENCE_TEXT>
MGSDKIHHHHHHMMLVQLRQVGVIRSPYKNFSKAPHQGRFSKETVEIEIFPEFEDGLKDIETCTHLIVLYWLDRANRDALLVVPPHDSREHGVFATRSPHRPNPIGFAVVELLERDGRVLKVKGLDALDGTPVVDIKPYSSTIDSVGNAKIGWFEEANPQSKLTRLLLRAKEFHGHICPFVALGVRMSVIAMEKLGVEEDAMASVGEDILAIVECNNCLTDGVQVATGCTLGNNSLIYLDLGKNALTIVRRKDWKGVRVYVNAENVRKYFSKEALELFNKVIVRREGSEEDAKRLSEFWEETGWKMLEIPEEEFKVEFVEVQPIERAPIFENKRCEKCGELAMATRVKDGLCLRCAGSYYAVVGRGIVKFDGEMREVV

>  <soluble on expression in E. coli>
not soluble

$$$$
>  <SEQUENCE_TEXT>
MKLFERIHQDTEIRQIYDAIGQMEDEEAGWAYHNWFHVTNVVAMTEMILKQLAVSEEYLEAAKIAALLHDVGALQGKAGHALRGKQFAEAYFRKQKICLPYQEEILSSIENHSNGFDSEELMTLALIISDKLDITTSRVAKAGYFVPGMRQFQFLKKIEIMLSEQEVCVSFTAEEELDLEELNAFYFMPKVFKAIAAFSGKIQRRPIVLLNNQEWPVPKQKNPSTVH

>  <soluble on expression in E. coli>
not soluble

$$$$
>  <SEQUENCE_TEXT>
MSTCATVSRDLDEPLAGTAATARTWLLLEQPGPWGTKALTSSHLDQALGRALEAAAEGTGVRIALIRRPGRHADCGTPAVRQVYAAHTVPGNVWLHGAMTSDPEQLLDLDFTALGMGDPHTFDRLLGGRPHTGDPLALVCTNGKRDRCCALLGRPLAAELAASGVTGAWEVTHLGGHRFAPTLLILPFGYAYGRAEAPHIKEVLQGVREGRVVVEGCRGRSAWERPGQAAELAVRTAAHEYAADALTVVATDGTAPRWEVTVAHADGRLWRVIVAQGASLPPRPESCGSALGSPARMDVVAVRELIPTEIDATSR

>  <soluble on expression in E. coli>
not soluble

$$$$
>  <SEQUENCE_TEXT>
DTHFPICIFCCGCCHRSKCGMCCKT

>  <soluble on expression in E. coli>
soluble

$$$$

(Q) Which soluble on expression in E. coli is listed for MGHHHHHHSHMTSYDQIWETFLNNCETSDFDVPQQEEDIYKSIRNAILHFNNRLRDNLKADNSTETVNRELSEDDLLILAHFLRYIFLLNKKTLFENTWQPFTNDVGIKNFGTQLNSLKQSVMDQKDEIERLILNAAVDYL ?
(A) soluble

(Q) And then MKKVLIVFGTRPEAIKMAPLVQQLCQDNRFVAKVCVTGQHREMLDQVLELFSITPDFDLNIMEPGQTLNGVTSKILLGMQQVLSSEQPDVVLVHGDTATTFAASLAAYYQQIPVGHVEAGLRTGNIYSPWPEEGNRKLTAALTQYHFAPTDTSRANLLQENYNAENIFVTGNTVIDALLAVREKIHTDMDLQATLESQFPMLDASKKLILVTGHRRESFGGGFERICQALITTAEQHPECQILYPVHLNPNVREPVNKLLKGVSNIVLIEPQQYLPFVYLMDRAHIILTDSGGIQEEAPSLGKPVLVMRETTERPEAVAAGTVKLVGTNQQQICDALSLLLTDPQAYQAMSQAHNPYGDGKACQRIADILAK , what is it?
(A) not soluble

* * *

MEASUREMENT_NOTES: soluble on expression in E. coli; label from the status in PepcDB or PDB records
ENDPOINT_LABEL: soluble on expression in E. coli

>  <SEQUENCE_TEXT>
MGHHHHHHSHMDFSHWPHVLPLEPGGCIDFQTENSSRHCLVTYRPDKNHTTIRSVLMEMSYRLDDTGNPICSCQPVHTFFGGPTCKLLTKNAIFQSPENDGNILVCTGDEAANSALLWDAASGSLLQDLRTDQPVLDICPFEVNRNSYLATLTEKMVHIYKWE

>  <soluble on expression in E. coli>
not soluble

$$$$
>  <SEQUENCE_TEXT>
SDTGFADSNNDSSPGEGSKRGNSGIEGPVPMDVELAAAKSKRLSEPFFLKNVLLEKSGDTSDLTALALSVHAVMLESGFVLLDHGSDKFSFSKKLLSVSLRYTLPELITRKDTNTVESVTVRFQNIGPRLVVYGTLGGSCKRVHMTSLDKSRFLPVIDLVVDTLKFEKQGSSSYYREVFMLWRMVKDELVIPLLIGLCDKAGLESPPCLMLLPTELKLKILELLPGVSIGYMACVCTEMRYLASDNDLWEHKCLEEGKGCLWKLYTGDVDWKRKFASFWRRKRLDLLARRNPPIKKSNPRFPTLFPDRRDRREPFDRFGPSDFYRFGLRDPRDRFGPRDPRDPHFYGFRY

>  <soluble on expression in E. coli>
soluble

$$$$
>  <SEQUENCE_TEXT>
SLPSVLDTLAAHSDNPSSFLALNSGNAYFHDGGFDGACAYRTSGRYVLQFGGPFTAPEHRARLLDAFAAHAGRRLVAVQLQRADAELYAAHGFTVNQLGASYAVDLSRFTLRGSRFVRLRNKISRARRAGLEVAEVMAGDDCAELDRIDQCWLRDKGRHVKELRFLVGQRNGSLQRHRRLFVGRIDGETAGYINYSPVYGSRSGWLHDLSRRRPDAPPGVMEALNATVMERLTAEGAGWLHFGFTPFTGLDPEHELPGASRMFTRFARLLAERGDVIYPAASQLEYKQKWAPHVVLPEYIAFRGRPRPGAVWQLLRATNAL

>  <soluble on expression in E. coli>
soluble

$$$$
>  <SEQUENCE_TEXT>
MDHFIKLLPKLTPHLRKGDCGKMGVIGGSLEYTGAPYFAASSASRLGADLIHIFCDPDAAQVIKGYSPDLIVHPGMTANSIIPKLSRMDAIVIGPGLGRNPNIWPLMQELFEFVRNRDVPFVIDGDGLWFVSEHIEKFPRQMSATVLTPNIVEFSRLCKSALGEEDVLNVRNNSQLQHLAAELSRKMNVTIYLKGEVDLVVTPNGEVSKCSTESSLRRCGGQGDVTAGSLGLFLYWAKKNLGDDWTSAHHEAGIASSWLVRTAGRRAFEKHGRSMNTPLLLDEIPKLVRDVETREMKDTVHTDSSKH

>  <soluble on expression in E. coli>
not soluble

$$$$

# input for lookup
(Q) // soluble on expression in E. coli lookup, key: MGSDKIHHHHHHMRRGELNERRDAIIRLLCAQDELSAQDLAARLNVSVQTIRTDLRELDEAALVQRRHGRVRLRQPSENIGYAPRMSVARSEKQQIAMAVKPMIEDGSRVALGTGTTVEACARQLAASHRDLFVATNNIHAVIALQGASGVSVSLAGGAVRLRDLDFVGAASRAFFADYMVDIAIFSCGGLSLSGDVLDYNTDEIAAREAISTCATRRVLVVDREKFGRALPCRKHMIWDYDVVVTGADFPREIMRKCQEAGCEVLRVATDERPLRA
(A) not soluble
